# Subject of test: CDK11B/Cyclin L2 (Homo sapiens, UniProt P21127)
# Sequence (P21127 1-782 isoform P21127-2): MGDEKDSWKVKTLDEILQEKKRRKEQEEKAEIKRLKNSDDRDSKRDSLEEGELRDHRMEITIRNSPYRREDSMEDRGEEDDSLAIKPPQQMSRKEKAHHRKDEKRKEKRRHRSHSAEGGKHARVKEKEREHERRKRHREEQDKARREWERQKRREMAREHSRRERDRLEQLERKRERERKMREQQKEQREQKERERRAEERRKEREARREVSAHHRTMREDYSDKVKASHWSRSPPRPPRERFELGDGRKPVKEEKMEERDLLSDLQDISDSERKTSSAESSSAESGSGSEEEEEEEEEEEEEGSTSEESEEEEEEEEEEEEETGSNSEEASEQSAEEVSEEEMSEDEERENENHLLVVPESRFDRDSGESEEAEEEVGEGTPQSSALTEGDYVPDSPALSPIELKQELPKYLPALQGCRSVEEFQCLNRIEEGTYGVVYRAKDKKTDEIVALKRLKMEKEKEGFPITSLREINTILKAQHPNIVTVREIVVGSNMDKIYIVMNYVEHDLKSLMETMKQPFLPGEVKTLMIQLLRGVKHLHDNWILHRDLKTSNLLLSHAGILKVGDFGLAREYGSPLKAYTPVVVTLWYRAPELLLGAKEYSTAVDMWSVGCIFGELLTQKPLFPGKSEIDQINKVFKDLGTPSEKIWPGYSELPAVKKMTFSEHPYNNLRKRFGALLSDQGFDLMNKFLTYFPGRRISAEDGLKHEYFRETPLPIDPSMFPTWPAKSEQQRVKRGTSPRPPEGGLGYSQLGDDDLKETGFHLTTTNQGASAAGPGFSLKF
# Protocol: NanoBRET live-cell target engagement, CDK11B-NanoLuc/Cyclin L2 in HEK-293
# Type: binding
# Particulars: average (± SEM where n=3); read-out: CDK11b/L2 IC50
Endpoint name: pIC50
Here pIC50 is given on a logarithmic scale as minus log10 of the concentration in mol/L.

Look up pIC50 of CN1C/C=C/CCOc2cccc(c2)-c2ccnc(n2)Nc2cccc(c2)C1 and report it.
7.29

====

List of CDK19/C Inhibition at 10µM (%) values.
# Subject of test: CDK19/Cyclin C (Homo sapiens, UniProt Q9BWU1)
# Sequence (Q9BWU1 whole entry): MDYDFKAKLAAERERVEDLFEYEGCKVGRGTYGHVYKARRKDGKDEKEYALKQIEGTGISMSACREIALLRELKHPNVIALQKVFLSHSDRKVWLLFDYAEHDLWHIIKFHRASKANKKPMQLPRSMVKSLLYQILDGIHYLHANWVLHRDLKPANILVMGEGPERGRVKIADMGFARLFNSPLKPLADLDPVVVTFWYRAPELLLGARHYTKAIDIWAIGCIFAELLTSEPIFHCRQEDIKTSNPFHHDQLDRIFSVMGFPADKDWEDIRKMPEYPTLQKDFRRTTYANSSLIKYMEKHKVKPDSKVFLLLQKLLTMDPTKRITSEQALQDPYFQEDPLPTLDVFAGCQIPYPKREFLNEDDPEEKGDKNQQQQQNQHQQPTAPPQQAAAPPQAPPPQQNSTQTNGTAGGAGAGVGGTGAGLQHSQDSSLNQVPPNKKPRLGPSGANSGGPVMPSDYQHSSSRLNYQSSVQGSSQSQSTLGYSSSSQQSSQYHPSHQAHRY
# Sequence (P24863 whole entry partner): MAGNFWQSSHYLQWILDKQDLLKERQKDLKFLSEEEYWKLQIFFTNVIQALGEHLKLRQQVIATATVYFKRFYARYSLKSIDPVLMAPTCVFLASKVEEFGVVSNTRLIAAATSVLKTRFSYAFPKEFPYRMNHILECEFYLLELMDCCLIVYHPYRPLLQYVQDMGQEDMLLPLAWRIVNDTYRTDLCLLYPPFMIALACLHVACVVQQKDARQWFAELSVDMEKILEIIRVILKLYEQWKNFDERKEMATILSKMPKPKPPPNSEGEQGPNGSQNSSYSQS
# Protocol: NanoBRET live-cell target engagement, NanoLuc-CDK19/Cyclin C in HEK-293
# Particulars: 10µM; independent experiment 1
Provide the reading as a plain figure in %.

Look up and report measured CDK19/C Inhibition at 10µM (%) (CDK19/Cyclin C (Homo sapiens, UniProt Q9BWU1)) for the following compound: Cc1c(Br)c(Br)c2c3c1nc(N1CCNCC1)n3CCC2.Cl [SEL 120-34A]
96.4

Look up and report measured CDK19/C Inhibition at 10µM (%) (CDK19/Cyclin C (Homo sapiens, UniProt Q9BWU1)) for the following compound: O=C1NCCc2[nH]c(-c3ccncc3)cc21 [PHA-767491]
91.1

Look up and report measured CDK19/C Inhibition at 10µM (%) (CDK19/Cyclin C (Homo sapiens, UniProt Q9BWU1)) for the following compound: CN(C)C/C=C/C(=O)Nc1ccc(C(=O)Nc2cccc(Nc3ncc(Cl)c(-c4c[nH]c5ccccc45)n3)c2)cc1 [THZ1]
44.1

Look up and report measured CDK19/C Inhibition at 10µM (%) (CDK19/Cyclin C (Homo sapiens, UniProt Q9BWU1)) for the following compound: O=C1NC(=NCc2cccs2)S/C1=C\c1ccc2ncccc2c1 [RO-3306]
15.2

====

# Subject of test: CDK19/Cyclin C (Homo sapiens)
# Protocol: NanoBRET live-cell target engagement, NanoLuc-CDK19/Cyclin C in HEK-293
# Particulars: CDK19/C; experiment 1
Endpoint name: IC50
Please format your answer as a value with the unit trailing.

Look up IC50 of CNc1nc(C)c(-c2nc(Nc3cccc(S(N)(=O)=O)c3)ncc2F)s1 and report it.
507 nM

====

# Subject of test: CDK6/Cyclin D1 (Homo sapiens)
# Sequence (Q00534 whole entry): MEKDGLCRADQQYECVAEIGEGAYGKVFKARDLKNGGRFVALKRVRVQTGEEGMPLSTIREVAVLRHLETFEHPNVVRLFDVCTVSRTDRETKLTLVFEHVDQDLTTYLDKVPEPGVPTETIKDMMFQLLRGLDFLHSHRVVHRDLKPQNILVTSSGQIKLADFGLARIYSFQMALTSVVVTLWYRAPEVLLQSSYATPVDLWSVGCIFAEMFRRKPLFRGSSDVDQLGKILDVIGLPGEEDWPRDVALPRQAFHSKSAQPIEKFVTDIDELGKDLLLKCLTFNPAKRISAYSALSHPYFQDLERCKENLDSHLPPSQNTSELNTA
# Sequence (P24385 whole entry partner): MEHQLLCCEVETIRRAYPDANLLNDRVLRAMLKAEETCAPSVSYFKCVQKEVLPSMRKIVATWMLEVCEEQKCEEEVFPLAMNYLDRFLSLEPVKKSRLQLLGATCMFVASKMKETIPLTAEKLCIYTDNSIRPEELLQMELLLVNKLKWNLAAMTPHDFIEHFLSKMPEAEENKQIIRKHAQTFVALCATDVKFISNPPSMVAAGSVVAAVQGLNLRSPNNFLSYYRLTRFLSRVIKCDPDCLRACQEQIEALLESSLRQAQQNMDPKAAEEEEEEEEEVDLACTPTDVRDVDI
# Protocol: NanoBRET live-cell target engagement, NanoLuc-CDK6/Cyclin D1 in HEK-293
# Type: binding
# Particulars: CDK6/D1; 10µM; average of replicates; read-out: Inhibition at 10µM (%) Average
Endpoint name: inhibition at 10 µM (%)
Provide the reading as a plain figure in %.

>>> recorded_number("CC(C)c1cnn2c(NCc3ccccc3)cc(NCCCCCCN)nc12")
8.7

Look up and report measured inhibition at 10 µM (CDK6/Cyclin D1 (Homo sapiens)) for the following molecule: CCN1CCN(Cc2ccc(NC(=O)Nc3ccc(Oc4cc(NC)ncn4)cc3)cc2C(F)(F)F)CC1
50.9

Look up and report measured inhibition at 10 µM (CDK6/Cyclin D1 (Homo sapiens)) for the following molecule: Cc1ncc(-c2ccnc(Nc3ccc(S(C)(=O)=O)cc3)n2)n1C(C)C
91.2

Look up and report measured inhibition at 10 µM (CDK6/Cyclin D1 (Homo sapiens)) for the following molecule: CCN1CCN(Cc2ccc(Nc3ncc(F)c(-c4cc(F)c5nc(C)n(C(C)C)c5c4)n3)nc2)CC1
99.4

====

# Subject of test: CDK14/Cyclin Y (Homo sapiens, UniProt O94921)
# Sequence (O94921 whole entry): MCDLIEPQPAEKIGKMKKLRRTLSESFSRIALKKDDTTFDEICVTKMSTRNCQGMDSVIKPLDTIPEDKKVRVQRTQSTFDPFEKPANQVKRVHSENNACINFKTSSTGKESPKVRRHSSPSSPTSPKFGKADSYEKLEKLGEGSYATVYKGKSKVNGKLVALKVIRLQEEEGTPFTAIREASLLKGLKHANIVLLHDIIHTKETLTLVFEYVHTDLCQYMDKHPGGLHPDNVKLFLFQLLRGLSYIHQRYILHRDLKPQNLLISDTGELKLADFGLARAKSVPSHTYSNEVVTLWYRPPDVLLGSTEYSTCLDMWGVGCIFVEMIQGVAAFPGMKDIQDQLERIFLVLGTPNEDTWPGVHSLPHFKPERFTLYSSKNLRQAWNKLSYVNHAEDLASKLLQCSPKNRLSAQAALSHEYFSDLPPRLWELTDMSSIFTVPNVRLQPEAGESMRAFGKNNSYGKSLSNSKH
# Sequence (Q8ND76 whole entry partner): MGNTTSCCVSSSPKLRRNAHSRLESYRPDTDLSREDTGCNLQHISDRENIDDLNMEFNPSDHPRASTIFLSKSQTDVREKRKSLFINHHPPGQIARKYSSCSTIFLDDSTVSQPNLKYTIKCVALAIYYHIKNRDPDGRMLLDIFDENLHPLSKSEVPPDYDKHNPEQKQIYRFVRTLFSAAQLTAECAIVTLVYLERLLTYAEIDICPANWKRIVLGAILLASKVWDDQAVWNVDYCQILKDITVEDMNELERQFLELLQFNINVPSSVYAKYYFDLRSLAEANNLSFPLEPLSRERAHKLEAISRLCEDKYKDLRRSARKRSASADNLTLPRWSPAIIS
# Protocol: NanoBRET live-cell target engagement, CDK14-NanoLuc/Cyclin Y in HEK-293
# Assay type: binding
# Particulars: average (± SEM where n=3); read-out: CDK14/Y IC50
Endpoint name: IC50

>>> result("COCCN1CCN(Cc2ccc(-c3n[nH]c4c3C(=O)c3c(NC(=O)NN5CCOCC5)cccc3-4)cc2)CC1 [RGB286638]")
"31 nM"

Now take the following compound into account.
Look up and report measured IC50 (CDK14/Cyclin Y (Homo sapiens, UniProt O94921)) for the following compound: CN1C/C=C/CCOc2cccc(c2)-c2ccnc(n2)Nc2cccc(c2)C1 [SB1317]
29 nM

====

# Subject of test: CDK2/Cyclin E1 (Homo sapiens)
# Protocol: NanoBRET live-cell target engagement, CDK2-NanoLuc/Cyclin E1 in HEK-293
# Format: binding
# Particulars: CDK2/E1; experiment 3; read-out: IC50
Endpoint name: IC50 (nM)
Provide the reading as a plain figure in nM.

Look up IC50 of CC(C)c1cnn2c(NCc3ccccc3-n3cccn3)nc(OC3CCCNC3)nc12 (stereo not shown) and report it.
85

====

List of IC50 values.
# Subject of test: CDK11B/Cyclin L2 (Homo sapiens, UniProt P21127)
# Protocol: NanoBRET live-cell target engagement, CDK11B-NanoLuc/Cyclin L2 in HEK-293
# Format: binding
# Particulars: CDK11b/L2; experiment 3; read-out: IC50
Please format your answer as a value with the unit trailing.

>>> result("CC(C)c1cnn2c(NCc3ccccc3-n3cccn3)nc(OC3CCCNC3)nc12 (centres unmarked)")
"732 nM"

Now take the following compound into account.
Look up and report measured IC50 (CDK11B/Cyclin L2 (Homo sapiens, UniProt P21127)) for the following compound: COc1ccc(F)cc1-c1cc(NC(=O)C2CCCNC2)ncc1Cl (centres unmarked)
25 nM

====

List of IC50 values.
# Subject of test: CDK19/Cyclin C (Homo sapiens, UniProt Q9BWU1)
# Protocol: NanoBRET live-cell target engagement, NanoLuc-CDK19/Cyclin C in HEK-293
# Particulars: IC50 (nM) Replicate 1, CDK19/C
Provide the reading as a plain figure in nM.

>>> recorded_number("Cc1ncc(-c2ccnc(Nc3ccc(S(C)(=O)=O)cc3)n2)n1C(C)C")
470

Now take the following molecule into account.
Look up and report measured IC50 (CDK19/Cyclin C (Homo sapiens, UniProt Q9BWU1)) for the following molecule: CCN1CCN(Cc2ccc(NC(=O)Nc3ccc(Oc4cc(NC)ncn4)cc3)cc2C(F)(F)F)CC1
28

====

# Subject of test: CDK2/Cyclin E1 (Homo sapiens, UniProt P24941)
# Protocol: NanoBRET live-cell target engagement, CDK2-NanoLuc/Cyclin E1 in HEK-293
# Type: binding
# Particulars: live HEK-293, 2 h; mean ± S.E.M. (n=3) or mean (n=2); read-out: IC50 for CDK/cyclin complexes, CDK2/E1
List of IC50 values.
Provide the reading as a plain figure in nM.

>>> recorded_number("CC[C@H](CO)Nc1nc(Nc2cccc(-c3ccccn3)c2)c2ncn(C(C)C)c2n1 [(R)-DRF053]")
410

Now take the following compound into account.
Look up IC50 of CC(C)c1cnn2c(NCc3ccccc3-n3cccn3)nc(OC3CCCNC3)nc12 (stereo not drawn) [LDC4297] and report it.
85

====

# Subject of test: CDK17/Cyclin Y (Homo sapiens, UniProt Q00537)
# Sequence (Q00537 whole entry): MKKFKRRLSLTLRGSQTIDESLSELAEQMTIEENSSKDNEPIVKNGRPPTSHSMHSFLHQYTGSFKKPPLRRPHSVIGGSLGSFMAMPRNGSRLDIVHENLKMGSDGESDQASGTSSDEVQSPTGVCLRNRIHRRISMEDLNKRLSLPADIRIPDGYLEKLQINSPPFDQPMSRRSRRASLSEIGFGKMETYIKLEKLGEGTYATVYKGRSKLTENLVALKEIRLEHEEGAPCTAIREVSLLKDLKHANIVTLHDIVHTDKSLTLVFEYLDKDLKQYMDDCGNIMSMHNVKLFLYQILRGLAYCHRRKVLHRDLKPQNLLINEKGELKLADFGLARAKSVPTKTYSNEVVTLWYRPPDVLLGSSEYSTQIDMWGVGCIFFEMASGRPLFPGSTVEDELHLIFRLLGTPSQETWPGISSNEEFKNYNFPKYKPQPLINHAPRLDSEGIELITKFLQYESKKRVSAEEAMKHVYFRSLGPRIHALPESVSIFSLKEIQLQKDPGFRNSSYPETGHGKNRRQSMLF
# Sequence (Q8ND76 whole entry partner): as the sequence (Q8ND76 whole entry partner) above
# Protocol: NanoBRET live-cell target engagement, CDK17-NanoLuc/Cyclin Y in HEK-293
# Format: binding
# Particulars: CDK17/Y; 10µM
List of Inhibition at 10µM (%) Replicate 1 values.
Provide the reading as a plain figure in %.

Some compounds with recorded Inhibition at 10µM (%) Replicate 1:
>>> recorded_number("CCC(CO)Nc1nc(Nc2cccc(-c3ccccn3)c2)c2ncn(C(C)C)c2n1.Cl.O [(R) - DRF053]")
29.1
>>> recorded_number("CNC1CCN(C(=O)c2ccc(Nc3ncc(F)c(-c4cnc(C)n4C(C)C)n3)cc2)C1 (stereo not shown)")
90.9
>>> recorded_number("CC(C)c1cnn2c(NCc3ccccc3)cc(N[C@@H](CO)[C@H](O)CO)nc12")
77.5

Now take the following compound into account.
Look up Inhibition at 10µM (%) Replicate 1 of O=C(Nc1c[nH]nc1-c1ccccn1)c1nn(C2CCNCC2)cc1Cl and report it.
0.247

====

# Subject of test: CDK14/Cyclin Y (Homo sapiens, UniProt O94921)
# Protocol: NanoBRET live-cell target engagement, CDK14-NanoLuc/Cyclin Y in HEK-293
# Assay type: binding
# Particulars: 10µM; independent experiment 2; read-out: CDK14/Y Inhibition at 10µM (%)
List of inhibition at 10 µM values.
Provide the reading as a plain figure in %.

>>> recorded_number("CC(C)CC(=O)Nc1[nH]nc2c1CN(C(=O)C1CCN(C)CC1)C2(C)C")
81.8
>>> recorded_number("CN(C)C/C=C/C(=O)Nc1ccc(C(=O)N2CCC[C@@H](Nc3ncc(Cl)c(-c4c[nH]c5ccccc45)n3)C2)cc1")
61.2
>>> recorded_number("CN1C/C=C/CCOc2cccc(c2)-c2ccnc(n2)Nc2cccc(c2)C1")
98.5
>>> recorded_number("CC(=O)c1c(C)c2cnc(Nc3ccc(N4CCNCC4)cn3)nc2n(C2CCCC2)c1=O")
40
>>> recorded_number("CC(C)[C@H](CO)Nc1nc(Nc2ccc(C(=O)O)c(Cl)c2)c2ncn(C(C)C)c2n1")
3.1

Now take the following molecule into account.
Look up and report measured inhibition at 10 µM (CDK14/Cyclin Y (Homo sapiens, UniProt O94921)) for the following molecule: CN1CCN(c2ccc(Nc3ncc4cc5n(c4n3)C3(CCCCC3)CNC5=O)nc2)CC1
6.2
